Every entry's value here was drawn from PubChem BioAssay (NCI).

Tested on: T-47D breast
PROTOCOL_TEXT: NCI tumour cell line growth inhibition, 48 h

{"COMPOUND": "O=S1(=O)CCC2=CC(C(F)(F)F)=CC(C(F)(F)F)=CN21", "TARGET_SYSTEM": "T-47D breast", "TGI": "0.397 µM"}
{"COMPOUND": "C#CCn1c(I)cc2c(c1=O)COC(=O)[C@]2(O)CC", "TARGET_SYSTEM": "T-47D breast", "TGI": "> 100 µM"}
{"COMPOUND": "CC(C)(C)OC(=O)NCCCCCCCCCCCCn1c2c(c3ccccc3c1=O)C(=O)c1ccccc1-2", "TARGET_SYSTEM": "T-47D breast", "TGI": "> 100 µM"}
{"COMPOUND": "CC(=O)N1CCOC12N=NC(C)(C)O2 (stereo not drawn)", "TARGET_SYSTEM": "T-47D breast", "TGI": "> 100 µM"}
{"COMPOUND": "O=Cc1c2c(cc3c1CC1(C3)Cc3cc4c(c(C=O)c3C1)CCC4)CCC2", "TARGET_SYSTEM": "T-47D breast", "TGI": "> 100 µM"}
{"COMPOUND": "Nc1ccnc2c1ncn2[C@H]1C[C@H](O)[C@@H](CO)O1", "TARGET_SYSTEM": "T-47D breast", "TGI": "> 100 µM"}
{"COMPOUND": "CNCC(SC)c1ccc(O)c(O)c1 (stereo not drawn)", "TARGET_SYSTEM": "T-47D breast", "TGI": "67 µM"}
{"COMPOUND": "C#CC(O)/C=C/C(O)CCCC(O)CC#CC(O)C#CCCCCC(O)/C=C/CCCC(=O)CCCCCCCCCCCCCCCC(O)C(O)C#CC(=O)O (stereo not drawn)", "TARGET_SYSTEM": "T-47D breast", "TGI": "> 25 µM"}
{"COMPOUND": "O=C1C=C(NCCc2ccccc2)c2ccccc2C1=O", "TARGET_SYSTEM": "T-47D breast", "TGI": "40.1 µM"}
{"COMPOUND": "CCNc1ccc2c(c1)C(=O)N(OS(C)(=O)=O)C2=O", "TARGET_SYSTEM": "T-47D breast", "TGI": "> 100 µM"}
{"COMPOUND": "C/C(CC(O)(C(F)(F)F)C(F)(F)F)=N\\O", "TARGET_SYSTEM": "T-47D breast", "TGI": "> 10 µM"}
{"COMPOUND": "CCN(CC)c1ccc(/C=N/N=C(N)N)cc1", "TARGET_SYSTEM": "T-47D breast", "TGI": "24.5 µM"}
{"COMPOUND": "Cc1cc(C)c(-c2c(O)c(Br)c(-c3c(C)cc(C)c(Br)c3C)c(O)c2Br)c(C)c1Br", "TARGET_SYSTEM": "T-47D breast", "TGI": "4.84 µM"}
{"COMPOUND": "COc1ccc(C(=O)Cn2c(C(=O)c3ccc(Cl)cc3)nc(-c3ccccc3)c2-c2ccccc2)cc1", "TARGET_SYSTEM": "T-47D breast", "TGI": "> 100 µM"}
{"COMPOUND": "O=S1(=O)N=C(SCc2c[nH]c3ccccc23)N(c2ccccc2)c2ccncc21", "TARGET_SYSTEM": "T-47D breast", "TGI": "> 100 µM"}
{"COMPOUND": "CCOP(=O)(OCC)C(c1ccccc1)N(C(=O)NC(F)(F)F)c1ccc(C)cc1 (stereo not drawn)", "TARGET_SYSTEM": "T-47D breast", "TGI": "> 100 µM"}
{"COMPOUND": "Cc1cc(C)nc(NC(=O)COc2ccc(Cl)cc2)c1", "TARGET_SYSTEM": "T-47D breast", "TGI": "> 100 µM"}
{"COMPOUND": "N#C/C(=C/C=C/c1cccc(Cl)c1)S(=O)c1ccccc1 (stereo not drawn)", "TARGET_SYSTEM": "T-47D breast", "TGI": "1.11 µM"}
{"COMPOUND": "COc1ccc(C(=O)c2ccccc2)c(O)c1", "TARGET_SYSTEM": "T-47D breast", "TGI": "> 100 µM"}
{"COMPOUND": "O=C(Oc1cncc(Cl)c1)c1cc2ccccc2sc1=O", "TARGET_SYSTEM": "T-47D breast", "TGI": "> 100 µM"}
{"COMPOUND": "Cc1ccc(N=Nc2c(O)ccc3ccccc23)c(C)c1", "TARGET_SYSTEM": "T-47D breast", "TGI": "> 100 µM"}
{"COMPOUND": "CCOC(=O)C1=C(N2CCCC2)C(=O)C(C(=O)OCC)C1 (stereo not drawn)", "TARGET_SYSTEM": "T-47D breast", "TGI": "> 100 µM"}
{"COMPOUND": "Oc1ccc(Nc2nc(Cl)c3[nH]cnc3n2)cc1", "TARGET_SYSTEM": "T-47D breast", "TGI": "> 100 µM"}
